# TESTED_SYSTEM: T1, Dimeric fibrinogen-like domain of monkey (Macca fascicularis) Ang-2 conjugated to human IgG1 (monkey (Macca fascicularis))
# T1 construct: also called Dimeric Monkey Ang-2FD; Monkey Ang-2FD-hFc
# T1 sequence (chain, as listed by the source limits assumed): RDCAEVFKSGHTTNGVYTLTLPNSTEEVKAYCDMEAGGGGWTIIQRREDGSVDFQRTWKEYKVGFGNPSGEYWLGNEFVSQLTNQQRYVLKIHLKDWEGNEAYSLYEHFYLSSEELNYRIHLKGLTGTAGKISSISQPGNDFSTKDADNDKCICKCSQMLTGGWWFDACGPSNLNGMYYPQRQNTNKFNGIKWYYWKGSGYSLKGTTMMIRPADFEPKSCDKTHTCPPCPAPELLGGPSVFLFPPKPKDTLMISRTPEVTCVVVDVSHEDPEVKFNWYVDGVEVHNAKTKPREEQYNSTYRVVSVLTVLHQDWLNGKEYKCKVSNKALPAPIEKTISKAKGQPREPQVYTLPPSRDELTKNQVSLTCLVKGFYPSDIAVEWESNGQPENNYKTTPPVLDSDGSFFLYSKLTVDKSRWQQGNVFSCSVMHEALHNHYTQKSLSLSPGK
# PROTOCOL_DETAILS: SPR, hIgG1 antibody captured, room temp
pKd: −log10 of the molar value.
Give MET when the value for pKd is at least 9. Give NOT MET when it is less.

Reference set (4 entries):
| BINDER | ANSWER_LABEL |
| --- | --- |
| H1H706P (antibody, V domains shown) VH: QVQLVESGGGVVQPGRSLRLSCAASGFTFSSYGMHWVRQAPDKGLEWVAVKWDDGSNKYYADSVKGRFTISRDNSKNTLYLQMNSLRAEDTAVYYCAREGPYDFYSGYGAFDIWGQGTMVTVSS VL: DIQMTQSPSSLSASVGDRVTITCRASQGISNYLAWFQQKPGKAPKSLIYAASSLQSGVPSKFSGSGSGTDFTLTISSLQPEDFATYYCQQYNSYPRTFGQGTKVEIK | MET |
| H1H728N (antibody, V domains shown) VH: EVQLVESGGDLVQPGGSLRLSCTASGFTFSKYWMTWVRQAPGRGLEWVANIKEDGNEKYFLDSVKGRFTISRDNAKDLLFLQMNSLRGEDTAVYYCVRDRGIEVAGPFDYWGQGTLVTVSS VL: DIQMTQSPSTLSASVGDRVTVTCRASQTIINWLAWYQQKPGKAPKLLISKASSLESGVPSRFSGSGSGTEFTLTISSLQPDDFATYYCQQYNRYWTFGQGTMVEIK | NOT MET |
| H1H744N (antibody, V domains shown) VH: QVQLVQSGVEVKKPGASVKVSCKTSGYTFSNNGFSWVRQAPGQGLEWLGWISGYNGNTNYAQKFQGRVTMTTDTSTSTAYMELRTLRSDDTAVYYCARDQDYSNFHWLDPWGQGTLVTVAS VL: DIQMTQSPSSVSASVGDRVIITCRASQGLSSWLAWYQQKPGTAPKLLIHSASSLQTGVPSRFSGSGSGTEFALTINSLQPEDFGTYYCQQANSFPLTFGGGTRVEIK | MET |
| H1H724N (antibody, V domains shown) VH: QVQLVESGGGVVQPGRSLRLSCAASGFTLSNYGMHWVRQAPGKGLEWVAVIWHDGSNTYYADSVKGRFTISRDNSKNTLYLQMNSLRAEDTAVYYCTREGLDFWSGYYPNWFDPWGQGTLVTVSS VL: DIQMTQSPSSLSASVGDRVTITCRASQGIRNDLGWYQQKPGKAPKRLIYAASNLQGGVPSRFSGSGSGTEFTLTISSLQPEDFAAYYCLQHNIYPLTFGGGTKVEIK | MET |

Now look at this entry.
## Task Given the entry H1H696P (antibody, V domains shown) VH: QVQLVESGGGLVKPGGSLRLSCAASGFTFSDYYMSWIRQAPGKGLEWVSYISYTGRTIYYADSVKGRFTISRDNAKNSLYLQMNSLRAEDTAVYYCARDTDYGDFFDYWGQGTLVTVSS VL: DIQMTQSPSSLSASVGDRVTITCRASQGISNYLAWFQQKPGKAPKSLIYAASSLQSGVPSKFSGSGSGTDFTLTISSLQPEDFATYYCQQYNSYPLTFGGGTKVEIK , answer whether its pKd meets or surpasses 9.
## Result MET
